Ref: the supplement of paper PMC3334620

test-target: Msn1 (UniProt P22148)
Sequence: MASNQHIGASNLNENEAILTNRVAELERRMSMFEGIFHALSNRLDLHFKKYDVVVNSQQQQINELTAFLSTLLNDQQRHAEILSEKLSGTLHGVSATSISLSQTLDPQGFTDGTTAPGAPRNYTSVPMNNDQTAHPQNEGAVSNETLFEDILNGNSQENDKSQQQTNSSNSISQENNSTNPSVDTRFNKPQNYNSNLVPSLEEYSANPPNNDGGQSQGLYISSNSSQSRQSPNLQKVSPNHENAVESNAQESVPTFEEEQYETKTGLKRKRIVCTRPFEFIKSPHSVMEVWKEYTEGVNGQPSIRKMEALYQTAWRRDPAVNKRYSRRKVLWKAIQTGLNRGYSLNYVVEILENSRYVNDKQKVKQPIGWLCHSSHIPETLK
assay-method-text: PBM E-score (8-mer binding enrichment) (E-score (-0.5 to 0.5)); higher = stronger / more preferred TF binding
measurement-context: protein concentration: 200 nM; construct: GST-full length
The full ranking holds about 33,000 sequences; the median of “E-score (-0.5 to 0.5)” is about -0.013, and the highest 2% start at about 0.3. Many of the other results were omitted from the sample, so the highest values are more common in it than they were.
endpoint-label: PBM E-score
Please reply with the value in numeric form only.

*Q* Give a short answer stating reported PBM E-score for "CGCATTTA" .
*A* 0.193

*Q* Give a short answer stating reported PBM E-score for "AGCGCGTG" .
*A* -0.133
